Test system: kochia
assaySummary: Test A postemergence
Format: in vivo, Kochia scoparia
conditionDetails: 1000 g ai/ha, 0 to 100 scale, 0 no effect, 100 complete control
measurementType: Plant response rating, Kochia
The response must contain the number and no unit.

Past entries and their recorded results:
NS(=O)(=O)c1cnn(-c2ccccc2Oc2ncc(Cl)cn2)c1 | 90
FCc1cn(-c2ccccc2Oc2ncc(Cl)cn2)nn1 | 100
Clc1cnc(Oc2ccccc2-n2cc(C3CC3)nn2)nc1 | 100

Entry Fc1cccc(Oc2ncc(Cl)cn2)c1-n1cc(C2CCCCC2)nn1 has what Plant response rating, Kochia?
30

Entry O=Cc1cn(-c2c(F)cccc2Oc2ncc(Cl)cn2)nn1 has what Plant response rating, Kochia?
0
